target: Histone deacetylase (Rattus norvegicus) (UniProt Q6P6W3+Q99P99+Q99P96+Q4QQW4+Q99P97+Q5RJZ2+B1WBY8); conditions: at 10 µM
Description: Inhibition of rat liver HDAC at 10 uM pre-incubated for 15 mins before Boc-Lys(Ac)-AMC substrate addition and measured after 30 mins by fluorometry
Known inhibition of a selection of compounds
propertyMeasured: inhibition (%)

{"chemSmiles": "CC1(C)CC(=O)Nc2ccc(C(=O)NCc3cccc(/C=C/C(=O)NO)c3)cc21", "propertyMeasured": "inhibition", "reported": 95}
{"chemSmiles": "CC1(C)CC(=O)Nc2cc(OCCCCCC(=O)NO)ccc21", "propertyMeasured": "inhibition", "reported": 91}
{"chemSmiles": "O=C(CCCCCNC(=O)c1ccc2c(c1)CCC(=O)N2)NO", "propertyMeasured": "inhibition", "reported": 94}
{"chemSmiles": "CC1(C)CC(=O)Nc2ccc(C(=O)NC[C@H]3CC[C@H](/C=C/C(=O)NO)CC3)cc21", "propertyMeasured": "inhibition", "reported": 98}
{"chemSmiles": "O=C(CCCCCCNC(=O)c1ccc2[nH]c(=O)ccc2c1)NO", "propertyMeasured": "inhibition", "reported": 100}

====

molecular target: Histone deacetylase (Rattus norvegicus) (UniProt Q6P6W3+Q99P99+Q99P96+Q4QQW4+Q99P97+Q5RJZ2+B1WBY8); settings: at 10 µM;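 note: HDAC enzyme from rat liver, compound preincubated 15 min, then Boc-Lys(Ac)-AMC substrate added, fluorescence read after 30 min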
propertyMeasured: inhibition (%)

{"chemSmiles": "CC1(C)CC(=O)Nc2ccc(NC(=O)CCCCCCC(=O)NO)cc21", "propertyMeasured": "inhibition", "reported": 98}
{"chemSmiles": "CC1(C)CC(=O)Nc2ccc(C(=O)NC[C@H]3CC[C@H](CCC(=O)NO)CC3)cc21", "propertyMeasured": "inhibition", "reported": 99}
{"chemSmiles": "CC1(C)CC(=O)Nc2c(F)cc(NC(=O)CCCCCCC(=O)NO)cc21", "propertyMeasured": "inhibition", "reported": 99}
{"chemSmiles": "O=C(CCCCCCC(=O)Nc1ccc2oc(=O)ccc2c1)NO", "propertyMeasured": "inhibition", "reported": 98}
{"chemSmiles": "CCOC1=Nc2ccc(NC(=O)CCCCCCC(=O)NO)cc2C(C)(C)C1", "propertyMeasured": "inhibition", "reported": 97}

====

Known IC50 of a selection of compounds
Target: Protein deacetylase HDAC6 (Homo sapiens, UniProt Q9UBN7)
Sequence (Q9UBN7 whole entry): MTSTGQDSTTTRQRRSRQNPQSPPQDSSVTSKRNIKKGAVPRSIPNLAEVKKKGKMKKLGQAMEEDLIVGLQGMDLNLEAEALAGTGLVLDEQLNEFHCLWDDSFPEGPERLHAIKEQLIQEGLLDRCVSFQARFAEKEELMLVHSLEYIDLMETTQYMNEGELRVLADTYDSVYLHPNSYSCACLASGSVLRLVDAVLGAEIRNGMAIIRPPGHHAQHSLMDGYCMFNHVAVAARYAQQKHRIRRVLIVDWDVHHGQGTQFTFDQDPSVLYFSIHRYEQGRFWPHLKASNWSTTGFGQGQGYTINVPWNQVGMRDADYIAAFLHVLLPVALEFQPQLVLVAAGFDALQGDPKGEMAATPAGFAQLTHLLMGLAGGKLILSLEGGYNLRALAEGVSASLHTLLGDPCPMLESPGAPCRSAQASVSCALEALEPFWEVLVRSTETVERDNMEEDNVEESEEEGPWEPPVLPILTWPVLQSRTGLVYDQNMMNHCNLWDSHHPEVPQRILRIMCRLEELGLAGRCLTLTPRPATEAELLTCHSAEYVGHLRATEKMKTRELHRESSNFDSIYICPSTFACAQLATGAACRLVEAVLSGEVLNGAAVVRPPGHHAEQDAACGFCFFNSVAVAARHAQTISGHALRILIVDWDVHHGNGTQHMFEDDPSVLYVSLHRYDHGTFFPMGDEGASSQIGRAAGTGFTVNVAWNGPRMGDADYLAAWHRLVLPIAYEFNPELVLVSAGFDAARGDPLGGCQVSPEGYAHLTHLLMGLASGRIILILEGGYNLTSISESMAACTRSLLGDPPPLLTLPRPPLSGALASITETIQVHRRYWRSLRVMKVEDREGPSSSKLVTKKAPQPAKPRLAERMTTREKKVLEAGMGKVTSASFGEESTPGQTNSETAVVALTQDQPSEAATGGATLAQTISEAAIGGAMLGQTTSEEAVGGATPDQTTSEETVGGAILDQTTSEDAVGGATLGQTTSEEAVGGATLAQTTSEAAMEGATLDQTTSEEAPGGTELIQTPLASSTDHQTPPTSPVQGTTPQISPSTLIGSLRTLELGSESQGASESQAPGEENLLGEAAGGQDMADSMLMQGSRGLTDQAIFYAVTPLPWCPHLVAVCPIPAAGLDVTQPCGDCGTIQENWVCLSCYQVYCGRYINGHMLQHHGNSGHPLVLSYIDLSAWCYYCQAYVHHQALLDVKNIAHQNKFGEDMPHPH

{"chemSmiles": "O=C(CCCCCCNC(=O)c1ccc2[nH]c(=O)ccc2c1)NO", "assayTarget": "Protein deacetylase HDAC6 (Homo sapiens, UniProt Q9UBN7)", "outputUnit": "nM", "IC50": 280}
{"chemSmiles": "CC1(C)CC(=O)Nc2ccc(C(=O)NC[C@H]3CC[C@@H](/C=C/C(=O)NO)CC3)cc21", "assayTarget": "Protein deacetylase HDAC6 (Homo sapiens, UniProt Q9UBN7)", "outputUnit": "nM", "IC50": 720}
{"chemSmiles": "CC1(C)CC(=O)Nc2ccc(C(=O)NCc3cccc(/C=C/C(=O)NO)c3)cc21", "assayTarget": "Protein deacetylase HDAC6 (Homo sapiens, UniProt Q9UBN7)", "outputUnit": "nM", "IC50": 290}
{"chemSmiles": "Cn1c(=O)ccc2cc(C(=O)NCCCCCCC(=O)NO)ccc21", "assayTarget": "Protein deacetylase HDAC6 (Homo sapiens, UniProt Q9UBN7)", "outputUnit": "nM", "IC50": 86}
{"chemSmiles": "O=C(CCCCCCC(=O)Nc1ccc2c(c1)CCC(=O)N2)NO", "assayTarget": "Protein deacetylase HDAC6 (Homo sapiens, UniProt Q9UBN7)", "outputUnit": "nM", "IC50": 630}
{"chemSmiles": "COc1ccc2cc(C(=O)NCCCCCCC(=O)NO)ccc2n1", "assayTarget": "Protein deacetylase HDAC6 (Homo sapiens, UniProt Q9UBN7)", "outputUnit": "nM", "IC50": 40}
{"chemSmiles": "CC1(C)CC(=O)Nc2ccc(C(=O)NCCCCCCC(=O)NO)cc21", "assayTarget": "Protein deacetylase HDAC6 (Homo sapiens, UniProt Q9UBN7)", "outputUnit": "nM", "IC50": 92}

These data points were gathered from ChEMBL document CHEMBL3351757.
